Please go through the items and note down their IC50.
- tgt: mouse GOAT (Mus musculus)
- Construct: made in house; host or cells: Sf9 insect cells (baculovirus), membrane fractions
- Sequence (P0C7A3 whole entry): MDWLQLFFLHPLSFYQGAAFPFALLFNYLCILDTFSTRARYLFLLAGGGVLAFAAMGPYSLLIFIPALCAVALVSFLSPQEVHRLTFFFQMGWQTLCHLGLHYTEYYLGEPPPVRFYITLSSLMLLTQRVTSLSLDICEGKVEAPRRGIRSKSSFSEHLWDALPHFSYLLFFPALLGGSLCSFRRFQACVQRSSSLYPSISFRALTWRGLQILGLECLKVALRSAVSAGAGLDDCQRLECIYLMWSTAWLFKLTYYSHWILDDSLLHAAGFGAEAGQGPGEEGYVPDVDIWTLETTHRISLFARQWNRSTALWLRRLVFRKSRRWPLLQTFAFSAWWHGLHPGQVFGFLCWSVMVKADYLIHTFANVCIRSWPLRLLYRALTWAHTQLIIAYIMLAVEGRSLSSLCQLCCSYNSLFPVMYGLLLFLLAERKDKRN
- experiment.summary: ghrelin radio-octanoylation assay (Yang et al.), Sf9 membrane fractions
- Assay type: biochemical
- measurement.parameters: Table 1, inhibitory activity against GOAT, cells printed in nM
- Procedure: In vitro activity was quantified using the octanoylation assay developed by Yang et al. (2008, Proc. Natl. Acad. Sci. USA 105:10750-10755). No pure or soluble form of GOAT that retains enzymatic activity is thus far available. Recombinant poly-His-tagged ghrelin was incubated with radiolabeled octanoyl CoA and membrane fractions isolated from Sf9 cells infected with a GOAT-encoding baculovirus. […]
Give bare numbers, in nM.

Required: IC50, one value per molecule below.
1. CCCC[C@H]1C[C@@H](C(=S)NC[C@H]2CCCN2C(=O)[C@@H](NC(=O)CN)C2CCCCC2)C1
2. CCCC[C@H]1C[C@@H](C(=O)NCCN(C)C(=O)[C@@H](NC(=O)CN)C2CCCCC2)C1
3. CCCC[C@H]1C[C@H](C(=O)NC[C@H]2CCCN2C(=O)[C@@H](NC(=S)CN)C(C)(C)C)C1
4. CCCC[C@H]1C[C@H](C(=S)NC[C@H]2CCCN2C(=O)[C@@H](NC(=S)CN)C(C)(C)C)C1

[650, 2000, 25, 200]
